Test system: SR leukemia
protocolDetails: NCI tumour cell line growth inhibition, 48 h
The following compounds are listed with their measured TGI values.

# annotated cases, reported TGI shown
INSERT INTO measurements (compound, readoutkind, recordedresult) VALUES
  ('Cc1ccc2nc3c(n2c1)C(=O)C(=O)c1ccccc1-3', 'TGI', '3.33 µM'),
  ('CC1(C)CN=CC(C)(OCc2ccccc2)C(=O)NC(C)(C)CN=CC(C)(OCc2ccccc2)C(=O)N1 (stereo not given)', 'TGI', '> 10 µM'),
  ('CC(C)=CCC[C@@H](C)C1=CC(=O)C(C)=C(O)C1=O', 'TGI', '5.98 µM'),
  ('COc1ccc(N=Nc2c(-c3ccccc3)nn(C(=O)CC(=O)Nc3ccccc3Cl)c2-c2ccccc2)cc1', 'TGI', '11.3 µM'),
  ('CN(C)C=NCC(O)c1ccccc1 (stereo not given)', 'TGI', '> 100 µM');

Task: So what does the record say about TGI for CCCCCCCCCCCCCCCC(=O)OCC1OC(OC)C(NC(=O)N(CCCl)N=O)C(O)C1O (stereo not given) ?
Result: > 60.9 µM

Task: What value of measured TGI is listed for CCn1c(=O)c2c3ccc(OC)cc3[nH]c2c2ccc(OC)cc21 ?
Result: > 100 µM

Task: # query: TGI of entry O=C(Nc1ccc(Nc2ccncc2)cc1)c1ccc(Nc2ccnc3ccc([N+](=O)[O-])cc23)cc1[N+](=O)[O-]
Result: 38.8 µM

Task: I am curious: what TGI value has been reported for CC(=O)Nc1ccc(-c2csc(Nc3cccc(-c4csc(-c5ccccc5)n4)c3)n2)cc1 ?
Result: > 50 µM

Task: Please report the recorded TGI for Oc1ccc2ccccc2c1N=Nc1ccc(Cl)cc1 .
Result: > 100 µM
